Assay system: Orexin/Hypocretin receptor type 1 (Homo sapiens)
Sequence (O43613 whole entry): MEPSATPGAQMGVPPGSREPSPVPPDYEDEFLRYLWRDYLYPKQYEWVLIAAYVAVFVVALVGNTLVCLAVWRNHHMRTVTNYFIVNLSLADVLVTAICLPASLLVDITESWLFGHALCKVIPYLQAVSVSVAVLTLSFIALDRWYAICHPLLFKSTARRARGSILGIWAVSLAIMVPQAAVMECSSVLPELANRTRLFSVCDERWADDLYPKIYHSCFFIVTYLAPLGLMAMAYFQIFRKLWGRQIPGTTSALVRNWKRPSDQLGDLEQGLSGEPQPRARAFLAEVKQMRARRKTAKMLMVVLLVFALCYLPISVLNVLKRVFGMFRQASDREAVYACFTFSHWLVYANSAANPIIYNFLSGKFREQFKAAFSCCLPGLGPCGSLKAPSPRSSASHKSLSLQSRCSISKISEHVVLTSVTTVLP
Assay text: Antagonist activity at human OX1R expressed in CHOK1 cells assessed as inhibition of orexin A-induced intracellular Ca2+ release preincubated for 15 mins followed by orexin A addition by Fura 2-AM dye based fluorescence assay based by Cheng-Prusoff equation analysis
Entries and their Ki values follow.
Assay metric: Ki (nM)

In [3]: df
Out[3]:
                                smiles_text  output_unit  experimental_value
0  COc1ccc2c(c1)[C@H]1C[C@H](N(C)C(=O)/C=C/c3ccoc3)CC[C@@]1(O)[C@H](N(CC1CC1)S(=O)(=O)c1ccccc1)C2           nM                 842
1  COc1ccc2c3c1O[C@@H]1[C@H]3[C@@H](CC[C@H]1N(C)C(=O)/C=C/c1ccoc1)[C@H](N(CC1CC1)S(=O)(=O)c1ccccc1)C2           nM                20.9
2  COc1ccc2c3c1O[C@H]1[C@H](N(C)C(=O)/C=C/c4ccoc4)CC[C@](O)([C@@H]31)[C@H](N(CC1CC1)S(=O)(=O)c1ccccc1)C2           nM                 101
